Data origin, for the record: the array DNA melting data of Ke et al. (doi:10.1101/2024.01.08.574731)

assay: folding enthalpy; higher = less favourable; fluorescence melt of hairpins on a sequencing array, two-state fit; conditions: sodium 0.088 M
Can you tell me folding enthalpy for the items I'm about to list?
Numbers only, in kJ/mol.

Answered cases to consult:
GAGTGTGGAAACATGCTC (((..((....))..))) : -131
GGCCCCGAAAGGGCGCC ((((((....))).))) : -77.4
GTTCCCGAAAGGGGAAAC ((((((....)))..))) : -49.5
GGGTTAGGAAACTGACCC ((((.((....)).)))) : -145
GCGTATATACGC ((((....)))) : -113
GCGATGATCGC ((((...)))) : -93.1

Look at each sequence and report its folding enthalpy.
1. GTAGCCGAAAGGCACTAC ((((((....)))..)))
2. GATCTGACACAGATC ((((((...))))))

1: -52.2; 2: -149

Field: folding enthalpy. Fill in for each record below.
1. GTTACAGCGAAAGCTAAC (((..(((....))))))
2. GCGGAATCCGC ((((...))))
3. GATCTGGATACAGATC ((((((....))))))
4. GCATTTGCGAAAGCATGC (((..(((....))))))
5. GGCGCTCGAAAGAGGGCC (((.(((....))).)))
6. GCACCAGGAAACTGGTAC (.(((((....))))).)

[-46.4, -98.1, -142, -74.9, -166, -69.9]

Please give folding enthalpy, item by item, for the list that follows.
1. GATCCGACAGCGGATC ((((((....))))))
2. GGCGTGCGAAAGCAGCC (((.(((....))))))
3. GATCCCTTCGGGGATC ((((((....))))))
4. GATCAATGCGTTGATC ((((((....))))))
5. GTCGTGGGAAACCATGGC (.(.(((....))).).)
6. GCCACAGGAAACCGTGGC (((((.(....).)))))

1. -143
2. -113
3. -167
4. -191
5. -107
6. -180

List folding enthalpy for every entry below, keeping the order given.
1. GTGTCTTCGAAAGAACAC (((..(((....))))))
2. GTGGCCGAAAGGCACCAC ((((((....)))..)))
3. GCCCTGCGAAAGCTGTGC ((.(.((....)).).))

1. -71.8
2. -51.5
3. -65.8

----------
assay: folding enthalpy; higher = less favourable; fluorescence melt of hairpins on a sequencing array, two-state fit; details: sodium 0.088 M
Assign Criterion met whenever folding enthalpy does not fall below -20 kcal/mol; assign Criterion not met whenever it does.

// below: answered sequences
GGTATCTCGAAAGAGACC (((..(((....)))))) : Criterion not met
GAACAAGGAAACTTGCTC ((.((((....)))).)) : Criterion met
GTGCATGGAAACACGCAC ((((.((....)).)))) : Criterion not met
GACTAGGGAAACTTAGTC (((((.(....).))))) : Criterion not met
GTGTCTGGAAACGGATAC ((.((.(....).)).)) : Criterion met

Dear colleague, could you confirm whether GATGGAGGAAACTCTGTC ((..(((....)))..)) has folding enthalpy at or above -20 kcal/mol?
Criterion not met

Check the entry GGGCGCCGAAAGGCTCCC (((.(((....))).))) : does folding enthalpy equal or exceed -20 kcal/mol?
Criterion not met

// inclusive: folding enthalpy at least -20 kcal/mol? input: GATCACGCTTGTGATC ((((((....))))))
Criterion not met

Answer whether folding enthalpy of GACTCCGGAAACGGAGCC (.(((((....))))).) is greater than or equal to -20 kcal/mol.
Criterion met

Confirm if folding enthalpy reported for the sequence GGTAGACGAAAGTCGACC (((.(((....))).))) is -20 kcal/mol or above.
Criterion not met

Check if folding enthalpy >= -20 kcal/mol (inclusive). Item: GCGAGTCGTCGC ((((....))))
Criterion not met

Could you tell me if the measured folding enthalpy of GCGGAGTCGAAAGACCGC (((..(((....)))))) reaches -20 kcal/mol or more?
Criterion not met

Identify whether the reported folding enthalpy of the following sequence is -20 kcal/mol or greater: GCTACGGGAAACCGTGGC ((.((((....)))).))
Criterion not met

Is it the case that GAATGTGGAAACATGTTC (((..((....))..))) has folding enthalpy reaching or exceeding -20 kcal/mol?
Criterion met

Dear colleague, could you confirm whether GATGGAGAAATCCATC ((((((....)))))) has folding enthalpy at or above -20 kcal/mol?
Criterion not met

Quick check: does GCTAAGGGAAACTTTGGC ((.((.(....).)).)) have folding enthalpy greater than or equal to -20 kcal/mol?
Criterion met

Say whether GATCCTCGGTAGGATC ((((((....)))))) shows folding enthalpy of -20 kcal/mol or more.
Criterion not met

Decide: is the reported value of folding enthalpy for GCATGGCGAAAGCGCTGC (((..((....))..))) equal to or greater than -20 kcal/mol?
Criterion met

Does the sequence GCGTATCAACGC ((((....)))) have recorded folding enthalpy that is -20 kcal/mol or more?
Criterion not met

Test whether the sequence GATCATTAGAATGATC ((((((....)))))) records folding enthalpy of -20 kcal/mol or higher.
Criterion not met

Kindly determine if folding enthalpy recorded for GCGCTGGGAAACCAACGC (((.(((....))).))) is above or exactly -20 kcal/mol.
Criterion not met

Please indicate if the recorded folding enthalpy for GCATGAGGAAACTCATGC (((((((....))))))) meets or exceeds -20 kcal/mol.
Criterion not met

Would you say GACACCGAAAGGTTGTC ((((((....))).))) shows folding enthalpy at minimum -20 kcal/mol?
Criterion not met

hey, is folding enthalpy for this one >= -20 kcal/mol? GATCCACAGGTGGATC ((((((....))))))
Criterion not met

Dear colleague, could you confirm whether GCGGATGGAAACGTCTGC ((.((.(....).)).)) has folding enthalpy at or above -20 kcal/mol?
Criterion not met

Dear colleague, could you confirm whether GCCCTCGAAAGAGCAGGC ((((((....)))..))) has folding enthalpy at or above -20 kcal/mol?
Criterion not met

Given the entry GAGAACCGAAAGGTCCTC (((.(((....))).))) , answer whether its folding enthalpy meets or surpasses -20 kcal/mol.
Criterion not met

Identify whether the reported folding enthalpy of the following sequence is -20 kcal/mol or greater: GGGGCCACGAAAGTGCCC (((..(((....))))))
Criterion not met

Would you say GCAAGGCGAAAGCTTGGC ((.(.((....)).).)) shows folding enthalpy at minimum -20 kcal/mol?
Criterion met

Is the recorded value of folding enthalpy equal to or greater than -20 kcal/mol for this sequence? GTGGGCGAAAGCCGTCAC ((((((....)))..)))
Criterion met

Has GATCATTGTATGATC ((((((...)))))) a recorded folding enthalpy greater than or equal to -20 kcal/mol?
Criterion not met

Hi team, for GCAGTCGAAAGACTGTGC ((((((....)))..))) , is the recorded folding enthalpy at or above -20 kcal/mol?
Criterion met

----------
experiment: folding enthalpy; higher = less favourable; fluorescence melt of hairpins on a sequencing array, two-state fit; details: sodium 0.088 M
Experimental Endpoint: folding enthalpy (kcal/mol)
Give bare numbers, in kcal/mol.

GATCCAGTCATGGATC ((((((....)))))) : -39.8
GCGTGACCGAAAGGTCGC (((..(((....)))))) : -10.1
GTGTTCGAAAGAACCAC ((((((....))).))) : -13.3
GAACAGGGAAACCCGTTC ((((.((....)).)))) : -24.4
GTATTTGGAAACGAATAC (((((.(....).))))) : -30.2

Hi there! I need folding enthalpy for each item below, if you can.
1. CTTGTGAAAACAAG (((((....)))))
2. GAGGAGGCGAAAGCCCTC (((..(((....))))))
3. GATCAGCCCGCTGATC ((((((....))))))
4. GTAGGTCGAAAGACATAC (((.(((....))).)))
5. GCTCTGGAAACAGAGC ((((((....))))))
6. GGATACCGAAAGGTTTCC (((.(((....))).)))
7. GCGACGCGAAAGCGCTGC ((..(((....)))..))

1. -23.1
2. -14.1
3. -47.1
4. -29.7
5. -37.3
6. -37.6
7. -17.5

----------
experiment: melting temperature; fluorescence melt of hairpins on a sequencing array, two-state fit, raised by 9.35 °C to match UV melts; conditions: sodium 0.088 M
Cut-off 50 °C on Tm: below means t, at or above means f.

Previously resolved entries follow.
GGCCGCGAAAGCGTAGCC ((((((....)))..))) : f
GGGCCACGAAAGTGCCC (((.(((....)))))) : f
GTTAGGCGAAAGCCCAAC (((.(((....))).))) : t
GTTCACGAAAGTGGAAC ((((((....))).))) : t
GATCAAGTGTTGATC ((((((...)))))) : t

Find out if reported Tm for GCAGGGCGAAAGCATTGC (((..((....))..))) is less than 50 °C
f

Criterion: Tm strictly below 50 °C. Is it met by GCTGATGGAAACGTCAGC (((((.(....).))))) ?
f

Regarding GGCTTGGAAACAAGCC ((((((....)))))) , kindly confirm whether its Tm is beneath 50 °C.
f

Given GCATTGCGAAAGCACGGC ((..(((....)))..)) , is recorded Tm strictly lower than 50 °C?
t

Check if Tm falls below 50 °C for GACGTCGGAAACGATGTC (((.(((....))).))) .
f

Is 50 °C strictly greater than the sequence's reported Tm? sequence: GAATTGGGAAACCAACTC ((.((((....)))).))
t
